Data credit: the supplement of paper PMC11451515

- System: NOMO1
- measurementDescription: cell viability relative to DMSO control; higher = less cytotoxic
- conditions: RPMI 5 mM glucose + 10% FBS; 48 h; 0.569 µM
Assign labels as follows, please: yes for cell viability below 90%; no for cell viability equal to or exceeding 90%.

structureSmiles: Cc1c(C(=O)c2cccc3ccccc23)c2cccc3c2n1[C@H](CN1CCOCC1)CO3
cat: yes
--
structureSmiles: N#Cc1ccnc(N2C(=O)CC[C@H]2C(=O)N(c2cncc(F)c2)[C@H](C(=O)NC2CC(F)(F)C2)c2ccccc2Cl)c1
cat: no
--
structureSmiles: N#CC[C@H](C1CCCC1)n1cc(-c2ncnc3[nH]ccc23)cn1
cat: yes
--
structureSmiles: OCCN(CCO)c1nc(N2CCCCC2)c2nc(N(CCO)CCO)nc(N3CCCCC3)c2n1
cat: no
--
structureSmiles: CC[C@@H]1C(=O)N(C)c2cnc(Nc3ccc(C(=O)NC4CCN(C)CC4)cc3OC)nc2N1C1CCCC1
cat: yes
--
structureSmiles: NC[C@H]1O[C@H](O[C@H]2[C@H](O)[C@@H](O[C@H]3O[C@H](CO)[C@@H](O)[C@H](N)[C@H]3O)[C@H](N)C[C@@H]2N)[C@H](N)C[C@@H]1O
cat: no
